Here, each record is paired with measured Activity (relative rate of hydrolysis) data.
Target: HvExoI W286F/W434F mutant (Hordeum vulgare, UniProt Q9XEI3, W311F/W459F)
Sequence (Q9XEI3 26-630 W311F/W459F): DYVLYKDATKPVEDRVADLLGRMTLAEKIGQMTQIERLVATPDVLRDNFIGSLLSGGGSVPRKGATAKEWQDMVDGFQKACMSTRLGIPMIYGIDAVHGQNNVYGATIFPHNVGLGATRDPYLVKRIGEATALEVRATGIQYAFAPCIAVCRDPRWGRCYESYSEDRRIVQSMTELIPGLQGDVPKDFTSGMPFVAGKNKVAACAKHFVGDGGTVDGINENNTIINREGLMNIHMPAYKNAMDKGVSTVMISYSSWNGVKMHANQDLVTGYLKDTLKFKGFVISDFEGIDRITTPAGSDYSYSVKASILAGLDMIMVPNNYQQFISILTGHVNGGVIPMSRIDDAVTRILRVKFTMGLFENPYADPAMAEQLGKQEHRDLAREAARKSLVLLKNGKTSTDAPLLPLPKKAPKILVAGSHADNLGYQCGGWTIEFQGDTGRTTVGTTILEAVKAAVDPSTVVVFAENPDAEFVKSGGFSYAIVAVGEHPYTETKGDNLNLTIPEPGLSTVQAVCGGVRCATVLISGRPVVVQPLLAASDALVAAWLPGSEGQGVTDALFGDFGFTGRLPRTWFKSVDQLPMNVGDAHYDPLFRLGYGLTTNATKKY
Assay: Relative rates of hydrolysis of poly-, oligosaccharides and aryl-glycosides
Type: biochemical
Conditions: substance is the substrate, nd = activity not detected

| molecule | tested.on | Activity (relative rate of hydrolysis) |
| --- | --- | --- |
| OC[C@H]1O[C@@H](O[C@H]2[C@H](O)[C@@H](O)[C@H](O[C@H]3[C@H](O)[C@@H](O)C(O)O[C@@H]3CO)O[C@@H]2CO)[C@H](O)[C@@H](O)[C@@H]1O (some centres unmarked) [Cellotriose] | HvExoI W286F/W434F mutant (Hordeum vulgare, UniProt Q9XEI3, W311F/W459F) | 0.02 ± 0.002 μmole/min per mg protein |
| OC[C@H]1O[C@@H](O[C@H]2[C@H](O)[C@@H](O)[C@H](O[C@H]3[C@H](O)[C@@H](O)[C@H](O[C@H]4[C@H](O)[C@@H](O)C(O)O[C@@H]4CO)O[C@@H]3CO)O[C@@H]2CO)[C@H](O)[C@@H](O)[C@@H]1O (some centres unmarked) [Cellotetraose] | HvExoI W286F/W434F mutant (Hordeum vulgare, UniProt Q9XEI3, W311F/W459F) | 0.02 ± 0.001 μmole/min per mg protein |
| OC[C@H]1O[C@@H](O[C@@H]2[C@@H](O)[C@H](O[C@@H]3[C@@H](O)[C@H](O[C@H]4[C@H](O)[C@@H](CO)OC(O)[C@@H]4O)O[C@H](CO)[C@H]3O)O[C@H](CO)[C@H]2O)[C@H](O)[C@@H](O)[C@@H]1O (some centres unmarked) [Laminaritetraose] | HvExoI W286F/W434F mutant (Hordeum vulgare, UniProt Q9XEI3, W311F/W459F) | 0.4 ± 0.04 μmole/min per mg protein |
| OC[C@H]1O[C@@H](O[C@@H]2[C@@H](O)[C@H](O[C@H]3[C@H](O)[C@@H](CO)OC(O)[C@@H]3O)O[C@H](CO)[C@H]2O)[C@H](O)[C@@H](O)[C@@H]1O (some centres unmarked) [Laminaritriose] | HvExoI W286F/W434F mutant (Hordeum vulgare, UniProt Q9XEI3, W311F/W459F) | 0.5 ± 0.04 μmole/min per mg protein |
| OC[C@H]1O[C@@H](O[C@H]2C(O)O[C@H](CO)[C@@H](O)[C@@H]2O)[C@H](O)[C@@H](O)[C@@H]1O (some centres unmarked) [Sophorose] | HvExoI W286F/W434F mutant (Hordeum vulgare, UniProt Q9XEI3, W311F/W459F) | 0.3 ± 0.03 μmole/min per mg protein |
| OC[C@H]1O[C@@H](O[C@@H]2[C@@H](O)[C@H](O[C@@H]3[C@@H](O)[C@H](O[C@@H]4[C@@H](O)[C@H](O[C@@H]5[C@@H](O)[C@H](O[C@@H]6[C@@H](O)[C@H](O[C@@H]7[C@@H](O)[C@H](O)O[C@H](CO)[C@H]7O)O[C@H](CO)[C@H]6O)O[C@H](CO)[C@H]5O)O[C@H](CO)[C@H]4O)O[C@H](CO)[C@H]3O)O[C@H](CO)[C@H]2O)[C@H](O)[C@@H](O)[C@@H]1O [Laminariheptaose] | HvExoI W286F/W434F mutant (Hordeum vulgare, UniProt Q9XEI3, W311F/W459F) | 0.5 ± 0.04 μmole/min per mg protein |
| OC[C@H]1O[C@@H](O[C@H]2[C@H](O)[C@@H](O)[C@H](O[C@H]3[C@H](O)[C@@H](O)[C@H](O[C@H]4[C@H](O)[C@@H](O)[C@H](O[C@H]5[C@H](O)[C@@H](O)C(O)O[C@@H]5CO)O[C@@H]4CO)O[C@@H]3CO)O[C@@H]2CO)[C@H](O)[C@@H](O)[C@@H]1O (some centres unmarked) [Cellopentaose] | HvExoI W286F/W434F mutant (Hordeum vulgare, UniProt Q9XEI3, W311F/W459F) | 0.02 ± 0.001 μmole/min per mg protein |
| OC[C@H]1O[C@@H](O[C@@H]2[C@@H](O)[C@H](O[C@@H]3[C@@H](O)[C@H](O[C@@H]4[C@@H](O)[C@H](O[C@@H]5[C@@H](O)[C@H](O)O[C@H](CO)[C@H]5O)O[C@H](CO)[C@H]4O)O[C@H](CO)[C@H]3O)O[C@H](CO)[C@H]2O)[C@H](O)[C@@H](O)[C@@H]1O [Laminaripentaose] | HvExoI W286F/W434F mutant (Hordeum vulgare, UniProt Q9XEI3, W311F/W459F) | 0.4 ± 0.04 μmole/min per mg protein |
